Target: human NTSR1 (Homo sapiens, UniProt P30989)
Construct: host or cells: HEK-293 cells (membrane preparations)
Sequence (P30989 whole entry): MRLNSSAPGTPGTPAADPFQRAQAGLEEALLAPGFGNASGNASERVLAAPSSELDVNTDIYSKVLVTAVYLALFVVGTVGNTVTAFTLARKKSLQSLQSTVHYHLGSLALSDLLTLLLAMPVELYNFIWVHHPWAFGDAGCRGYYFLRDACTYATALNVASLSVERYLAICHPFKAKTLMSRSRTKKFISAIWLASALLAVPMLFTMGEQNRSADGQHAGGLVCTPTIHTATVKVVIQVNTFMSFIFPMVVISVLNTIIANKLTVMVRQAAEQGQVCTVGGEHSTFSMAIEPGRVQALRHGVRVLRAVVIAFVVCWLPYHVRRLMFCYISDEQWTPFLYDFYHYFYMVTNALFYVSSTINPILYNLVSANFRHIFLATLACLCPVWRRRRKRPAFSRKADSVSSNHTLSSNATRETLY
Assay: radioligand-receptor binding assay, [125I] labeled neurotensin (Eurofins Panlabs)
Conditions: [125I] neurotensin 0.02 nM, membranes from NTSR1 expressing HEK-293 cells, 45 minute incubation, Cheng and Prusoff; read-out: NTSR1 binding Ki
Square brackets hold non-standard residues; d marks the D form. Peptide text beside a SMILES is read from it. * marks the point of attachment. Propanoyl(3-SS-DM1) = COc1cc2cc(c1Cl)N(C)C(=O)C[C@H](OC(=O)[C@H](C)N(C)C(=O)CCSSCCC(=O)*)[C@]1(C)O[C@H]1[C@H](C)[C@@H]1C[C@@](O)(NC(=O)O1)[C@H](OC)/C=C/C=C(\C)C2; NMeR = CN[C@@H](CCCNC(=N)N)C(=O)O; Tle = CC(C)(C)[C@H](N)C(=O)O
ATTRIBUTE MEASURED: pKi
Worth noting: pKi values are minus log10 of concentrations stated in mol/L.

Q: Could you tell me which pKi is on file for COc1cc2cc(c1Cl)N(C)C(=O)C[C@H](OC(=O)[C@H](C)N(C)C(=O)CCSSCCC(=O)NCCCC[C@H](NC(C)=O)C(=O)N1CCC[C@H]1C(=O)N(C)[C@@H](CCCNC(=N)N)C(=O)N[C@@H](CCCNC(=N)N)C(=O)N1CCC[C@H]1C(=O)N[C@@H](Cc1ccc(O)cc1)C(=O)N[C@H](C(=O)N[C@@H](CC(C)C)C(=O)O)C(C)(C)C)[C@]1(C)O[C@H]1[C@H](C)[C@@H]1C[C@@](O)(NC(=O)O1)[C@H](OC)/C=C/C=C(\C)C2 [Compound 13] (Ac-K(Propanoyl(3-SS-DM1))P[NMeR]RPY[Tle]L-OH) ?
Ans: 9.32
